TESTED_TARGET: HCV-NS5b (Hepatitis C virus genotype 1b)
Construct: The cloned fragment was missing the C terminus 21 amino acid residues; (His)6 (C); made in house; host or cells: XL-1 cells (E. coli)
EXPERIMENTAL_DETAILS: HCV-NS5b Enzyme Assay
Format: biochemical
ASSAY_SETUP: 1 μM test compound; incorporation of [3H]-UTP, 37° C., 2 hours

COMPOUND	inhibition at 1 µM (%)
Cc1nc(C)c(-c2ccc3cc(-c4c(C5CCCCC5)c5ccc(C(=O)O)cc5n4CC(=O)N4CCOCC4)cnc3n2)s1	74.3
O=C(O)c1ccc2c(C3CCCCC3)c(-c3ccc4nc(-c5ccncc5)ccc4c3)n(CC(=O)N3CCOCC3)c2c1	93.6
Cc1nc(C)c(-c2ccc3cc(-c4c(C5CCCCC5)c5ccc(C(=O)O)cc5n4CC(=O)NCCO)ccc3n2)s1	94.3
Cc1sc(-c2ccc3cc(-c4c(C5CCCCC5)c5ccc(C(=O)O)cc5n4CC(=O)N4CCOCC4)ccc3n2)c(C)[n+]1[O-]	77.6
Cc1nc(C)c(-c2ccc3cc(-c4c(C5CCCCC5)c5ccc(C(=O)O)cc5n4CC(=O)N4CCCC4C)ccc3n2)s1 (stereo not drawn)	96.3
Cc1nc(C)c(-c2ccc3cc(-c4c(C5CCCCC5)c5ccc(C(=O)O)cc5n4CC(=O)N4CCC(N5CCOCC5)CC4)ccc3n2)s1	91.8

====

TESTED_TARGET: HCV-NS5b (Hepatitis C virus genotype 1b)
Construct: The cloned fragment was missing the C terminus 21 amino acid residues; (His)6 (C); made in house; host or cells: XL-1 cells (E. coli)
EXPERIMENTAL_DETAILS: HCV-NS5b Enzyme Assay
Type: biochemical
ASSAY_SETUP: 1 μM test compound; incorporation of [3H]-UTP, 37° C., 2 hours
Each entry below lists one item and its recorded % inhibition @ 1 μM value.

MOLECULE	% inhibition @ 1 μM / %
O=C(O)c1ccc2c(C3CCCCC3)c(-c3ccc4nc(-c5cnccn5)ccc4c3)n(CC(=O)N3CCOCC3)c2c1 [Compound 218]	96.2
Cc1ccc(-c2ccc3cc(-c4c(C5CCCCC5)c5ccc(C(=O)O)cc5n4CC(=O)N4CCOCC4)ccc3n2)o1 [Compound 223]	95.1
O=C(O)c1ccc2c(C3CCCCC3)c(-c3ccc4nc(-c5ccc[nH]5)ccc4c3)n(CC(=O)N3CCOCC3)c2c1 [Compound 219]	96.0
O=C(O)c1ccc2c(C3CCCCC3)c(-c3ccc4nc(-c5ccco5)ccc4c3)n(CC(=O)N3CCOCC3)c2c1 [Compound 222]	92.3

====

Each entry below lists one item and its recorded inhibition at 1 µM value.
TESTED_TARGET: HCV-NS5b (Hepatitis C virus genotype 1b, UniProt Q9WMX2)
Construct: The cloned fragment was missing the C terminus 21 amino acid residues; (His)6 (C); made in house; host or cells: XL-1 cells (E. coli)
EXPERIMENTAL_DETAILS: HCV-NS5b Enzyme Assay
Assay type: biochemical
ASSAY_SETUP: 1 μM test compound; incorporation of [3H]-UTP, 37° C., 2 hours
Method: The coding sequence of NS5b protein was cloned by PCR from pFKI389luc/NS3-3′/ET as described by Lohmann, V., et al. (1999) Science 285, 110-113 using the following primers: • […] (SEQ. ID. NO. 1) • […] (SEQ. ID. NO. 2) […] The polymerase activity was assayed by measuring incorporation of radiolabeled UTP into a RNA product using a biotinylated, heteropolymeric template, which includes a portion of the HCV genome. […] Incorporation of radioactivity was determined by scintillation counting (cpm). […]

MOLECULE	inhibition at 1 µM [%]
COc1ccc(-c2ccc(-c3c(C4CCCCC4)c4ccc(C(=O)O)cc4n3CC(=O)N3CCOCC3)cc2)cc1 [Compound 301]	97
Cc1nc(C)c(-c2ccc3cc(-c4c(C5CCCCC5)c5ccc(C(=O)O)cc5n4CC(=O)N4CCC(C(=O)O)CC4)ccc3n2)s1 [Compound 241]	94.1
COc1ccc(-c2ccc(Cl)cc2)c(-c2ccc3cc(-c4c(C5CCCCC5)c5ccc(C(=O)O)cc5n4CC(=O)O)ccc3n2)c1 [Compound 202]	98.3
O=C(O)c1ccc2c(C3CCCCC3)c(-c3ccc(-c4ccc5ccccc5n4)cc3)n(CC(=O)N3CCOCC3)c2c1 [Compound 326]	99.8
COc1ccc(-c2ccc(Cl)cc2)c(-c2ccc3cc(-c4c(C5CCCCC5)c5ccc(C(=O)O)cc5n4CC(=O)N4CCC(N5CCCC5)CC4)ccc3n2)c1 [Compound 205]	97
O=C(O)c1ccc2c(C3CCCCC3)c(-c3ccc(-c4ccccc4F)cc3)n(CC(=O)N3CCOCC3)c2c1 [Compound 302]	99.3
